Origin of measurements: patent US7897602B2

target: Aurora B kinase (Homo sapiens); construct: purchased Cell signaling; test: Aurora B kinase assay ([γ-33P]ATP, CHOCKtide substrate); assay type: biochemical; conditions: 1.0 μM test compound
Sequence (Q96GD4 whole entry): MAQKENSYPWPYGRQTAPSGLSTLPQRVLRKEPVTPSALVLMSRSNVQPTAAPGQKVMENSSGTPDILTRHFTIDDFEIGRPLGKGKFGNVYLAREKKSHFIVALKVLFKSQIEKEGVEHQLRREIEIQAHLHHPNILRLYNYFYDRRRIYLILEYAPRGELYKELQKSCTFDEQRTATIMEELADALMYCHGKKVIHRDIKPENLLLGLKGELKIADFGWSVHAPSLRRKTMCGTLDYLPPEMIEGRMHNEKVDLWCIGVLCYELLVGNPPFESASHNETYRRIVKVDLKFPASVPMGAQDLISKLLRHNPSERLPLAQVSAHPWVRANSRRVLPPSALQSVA
QUANTITY_MEASURED: inhibition at 1 µM

[[record]]
compound = "CCOC(=O)CCc1c(/C=C2\\C(=O)Nc3ccc(NC(=O)Nc4ccc(Cl)c(C(F)(F)F)c4)cc32)[nH]c2c1C(=O)CCC2 [DCB-70137]"
experimental_system = "Aurora B kinase (Homo sapiens)"
endpoint_value = "-3.3%"

[[record]]
compound = "O=C(O)CCc1c(/C=C2\\C(=O)Nc3ccc(NS(=O)(=O)c4ccc5ccccc5c4)cc32)[nH]c2c1C(=O)CCC2 [DCB-70192]"
experimental_system = "Aurora B kinase (Homo sapiens)"
endpoint_value = "21%"

[[record]]
compound = "CN(C)S(=O)(=O)c1ccc2c(c1)/C(=C/c1[nH]c3c(c1CCC(=O)O)C(=O)CCC3)C(=O)N2 [DCB-70121]"
experimental_system = "Aurora B kinase (Homo sapiens)"
endpoint_value = "46.5%"

[[record]]
compound = "CCOC(=O)CCc1c(C=C2C(=S)Nc3cc(Br)ccc32)[nH]c2c1C(=O)CCC2 [DCB-70085]"
experimental_system = "Aurora B kinase (Homo sapiens)"
endpoint_value = "10.7%"

[[record]]
compound = "CCOC(=O)CCc1c(/C=C2\\C(=O)Nc3ccc(-c4cc5ccccc5s4)cc32)[nH]c2c1C(=O)CCC2 [DCB-70069]"
experimental_system = "Aurora B kinase (Homo sapiens)"
endpoint_value = "-2.6%"

